B1: RHOBTB3 (parent)
chain: QLQSMPSRELASMNLDIVDLLKKA

# Variants of: B1
# assayInfo: protein stability index of a GFP-peptide fusion (GPS, HEK-293T) (PSI 1-6); higher = more stable;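 also: lentivirally expressed fusions sorted by FACS into six bins by GFP to DsRed ratio, PSI derived from sequencing read proportions per bin multiplied by bin number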
# conditionsUsed: c terminus: a fixed tail appended
metric: protein stability index
Reply with just the number.

Solved cases (4 shown):
S12Y = 2.95
Q3V = 2.98
K22P = 3.57
R8Y = 2.66

// query protein stability index value for entry `A24K` 3.54

// query protein stability index value for entry `A24V` 3.34

// query protein stability index value for entry `Q3T` 3.38

// query protein stability index value for entry `K22G` 3.75

// query protein stability index value for entry `L21Y` 2.96

// query protein stability index value for entry `K22R` 3.21

// query protein stability index value for entry `S12C` 3.33
